Provide the recorded inhibition for the entries that follow.
# Measurement Target: Solute carrier family 2, facilitated glucose transporter member 1 (Homo sapiens) (UniProt P11166)
# Sequence (P11166 whole entry): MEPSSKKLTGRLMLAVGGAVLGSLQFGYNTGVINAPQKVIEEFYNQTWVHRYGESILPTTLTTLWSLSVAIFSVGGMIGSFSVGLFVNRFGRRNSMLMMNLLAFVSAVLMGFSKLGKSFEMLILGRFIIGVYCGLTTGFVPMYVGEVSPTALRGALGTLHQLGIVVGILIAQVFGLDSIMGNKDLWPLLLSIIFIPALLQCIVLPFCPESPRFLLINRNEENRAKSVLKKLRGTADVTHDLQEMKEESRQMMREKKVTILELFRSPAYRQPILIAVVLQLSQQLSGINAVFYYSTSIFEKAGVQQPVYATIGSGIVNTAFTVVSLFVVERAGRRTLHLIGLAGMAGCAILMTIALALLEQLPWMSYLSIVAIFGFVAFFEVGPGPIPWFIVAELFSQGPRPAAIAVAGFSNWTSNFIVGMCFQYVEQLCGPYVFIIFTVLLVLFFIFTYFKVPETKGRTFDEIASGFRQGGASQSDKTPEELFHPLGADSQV
# Test Protocol: ST_JUDE_LEISH: Cytotoxicity at 2uM final concentration against transgenic Leishmania Mexicana promastigotes LmGLUT1 that are glucose transport deficient and complemented with the human glucose transporter GLUT1. Activity is measured by DNA content using SYBR green in vitro
# Format: functional
Answer format: numeric, % implied, no suffix.

Request: Could you please provide reported inhibition for CC(C)(C)OC(=O)/C=C(\C(=O)OCc1ccc([N+](=O)[O-])cc1)c1csc(NC(c2ccccc2)(c2ccccc2)c2ccccc2)n1 ? Thanks!
Response: 4.04

Request: Could you please provide reported inhibition for CN1CCC[C@H]1COc1ccc(CN2CC[C@H](NC(=O)c3ccc(Cl)c(Cl)c3)C2)cc1Br ? Thanks!
Response: 2.61

Request: Could you please provide reported inhibition for Cc1ccnc(NC(c2ccc(Cl)c([N+](=O)[O-])c2)c2ccc3cccnc3c2O)c1 (stereo not given) ? Thanks!
Response: 0.43

Request: Could you please provide reported inhibition for Cc1cccc2nc(-c3cccc(-c4ccc(NC(=O)CN5CCN(C)CC5)cc4)c3)[nH]c12 ? Thanks!
Response: 2.17

Request: Could you please provide reported inhibition for O=C(NCCc1ccccc1F)c1cc(Br)cc(N2CCN(c3ccncc3)CC2)c1 ? Thanks!
Response: 0.33

Request: Could you please provide reported inhibition for Cc1cc(C)c2nc(N3CCC(C(=O)NCCCN4CCC(N5CCCCC5)CC4)CC3)sc2c1 ? Thanks!
Response: 1.45

Request: Could you please provide reported inhibition for N=c1ccn(CC(=NO)c2ccc(Cl)c(Cl)c2)cc1 ? Thanks!
Response: 0.09

Request: Could you please provide reported inhibition for Nc1c2ccccc2nc2cc([N+](=O)[O-])ccc12 ? Thanks!
Response: 8.44

Request: Could you please provide reported inhibition for CN1CCN(c2ccnc3ccc(NC(=O)Cc4ccc(OCc5ccccc5)cc4)cc23)CC1 ? Thanks!
Response: 7.43

Request: Could you please provide reported inhibition for CC1(C)Cc2c(oc3ncn(CCn4cnc5oc6c(c5c4=N)CC(C)(C)SC6)c(=N)c23)CS1 ? Thanks!
Response: -0.76

----------
# Measurement Target: Glucose transporter (Leishmania mexicana)
# Test Protocol: ST_JUDE_LEISH: Cytotoxicity at 2uM final concentration against transgenic Leishmania Mexicana promastigotes LmGT2 that are glucose transport deficient and complemented with the L. Mexicana glucose transporter 2. Activity is measured by DNA content using SYBR green in vitro
# Type: functional
Observable: inhibition (%)
Answer format: numeric, % implied, no suffix.

Request: Could you please provide reported inhibition for N#Cc1ccc(C2CCN(CC[C@H](N)Cc3ccc(Cl)s3)CC2)cc1 ? Thanks!
Response: 15.8

Request: Could you please provide reported inhibition for NCc1cccc(-c2cccc(CNC3CCN(Cc4ccccc4)CC3)c2)c1 ? Thanks!
Response: -0.37

Request: Could you please provide reported inhibition for N#Cc1ccc2c(c1)CCN(CCC1CCC(NC(=O)/C=C/c3cnc4ccccc4c3)CC1)CC2 (centres undefined) ? Thanks!
Response: 3.67

Request: Could you please provide reported inhibition for CSc1ccc(C=CC(=O)NC(=O)c2ccccc2O)cc1 ? Thanks!
Response: 1.41

Request: Could you please provide reported inhibition for N#Cc1ccc(N2C[C@@H](OCc3ccccc3)C[C@H]2C(=O)NCCC(c2ccccc2)c2ccccc2)c2ccccc12 ? Thanks!
Response: 3.78

Request: Could you please provide reported inhibition for COc1cccc(OC)c1CN1CCC(N(C)CCCCCCCCN2CCC(OC(=O)Nc3ccccc3-c3ccccc3)CC2)CC1 ? Thanks!
Response: 74.3

Request: Could you please provide reported inhibition for COc1cc2c(cc1N1CC(C)NC(C)C1)N(C(=O)c1ccc(-c3ccc(-c4ncc[nH]4)cc3C)cc1)CC2 (centres undefined) ? Thanks!
Response: 3.39

Request: Could you please provide reported inhibition for COc1ccc2nc(-c3cc(-c4ccc(NC(=O)C(C)C)cc4)cnc3N)[nH]c2c1 ? Thanks!
Response: 12.9

Request: Could you please provide reported inhibition for CCCCCCCCOc1ccc(N2C(N)=NC(N)=NC2(C)C)cc1 ? Thanks!
Response: -0.03

----------
# Measurement Target: Glucose transporter (Leishmania mexicana) (UniProt O61059)
# Test Protocol: ST_JUDE_LEISH: Cytotoxicity at 2uM final concentration against transgenic Leishmania Mexicana promastigotes LmGT2 that are glucose transport deficient and complemented with the L. Mexicana glucose transporter 2. Activity is measured by DNA content using SYBR green in vitro
# Format: functional
Provide the recorded inhibition for the entries that follow.
Answer format: numeric, % implied, no suffix.

Request: Could you please provide reported inhibition for CNCc1ccc(CN(C)c2nc(N)c3cc(OC)c(OC)cc3n2)cc1 ? Thanks!
Response: 6.34

Request: Could you please provide reported inhibition for CC(=NNC(S)=NC(c1ccccc1)c1ccccc1)c1ccccn1 ? Thanks!
Response: 32

Request: Could you please provide reported inhibition for CC1CCCN(C(=O)C(C)Nc2cc(Cl)ccc2N2CCOCC2)C1 (stereo not given) ? Thanks!
Response: -0.78

Request: Could you please provide reported inhibition for CS(=O)(=O)c1cccc(-c2cnc3[nH]cc(-c4ccc(C(=O)O)cc4)c3c2)c1 ? Thanks!
Response: 1.75

Request: Could you please provide reported inhibition for N=C(N)NC(=O)Nc1cc(Cl)c(Cl)c(Cl)c1 ? Thanks!
Response: 2.18

Request: Could you please provide reported inhibition for O=C(/C=C/c1ccc(Cl)c(Cl)c1)N1CCC(CN2CCC(Cc3cc4ccccc4[nH]3)CC2)CC1 ? Thanks!
Response: 0.81

Request: Could you please provide reported inhibition for c1ccc(COc2ccc(Nc3ncnc4cnc(-c5ccc(CNc6cccnc6)o5)cc34)cc2)cc1 ? Thanks!
Response: 0.83

Request: Could you please provide reported inhibition for CCc1nc(N)nc(N)c1-c1ccc(F)c(F)c1 ? Thanks!
Response: 3.74

Request: Could you please provide reported inhibition for Cn1c(NC(=O)CCCCCNC(=O)c2ccc(O)c(-c3ccc(Cl)c(Cl)c3)c2)nc2ccccc21 ? Thanks!
Response: 2

Request: Could you please provide reported inhibition for CCN(CCCN1CCCCC1)c1cc(C)nc(Nc2ccc(Cl)cc2)n1 ? Thanks!
Response: 1.8

Request: Could you please provide reported inhibition for O=C(Nc1ccc2c(c1)OCO2)NC1CCN(c2ccnc(Nc3ccc(F)cc3)n2)C1 (stereo not given) ? Thanks!
Response: 3.79

Request: Could you please provide reported inhibition for O=C(NCc1cccc(F)c1)Nc1cccc(-c2cccc(-c3nc4ccccc4[nH]3)c2)c1 ? Thanks!
Response: 7.79

Request: Could you please provide reported inhibition for CC(Oc1ccc(Cl)cc1)C(=O)NCCC1CCN(CCCCCNC(=O)/C=C/c2ccc(Cl)c(Cl)c2)CC1 (stereo not given) ? Thanks!
Response: 0.04

Request: Could you please provide reported inhibition for Cc1ccc(O)c(Nc2c3c(c(C#N)c4nc5ccccc5n24)CCC3)c1 ? Thanks!
Response: -0.54

Request: Could you please provide reported inhibition for CCCCC(O)c1cc(O)c2c(c1)OC(C)(C)CC2C1=CCN(Cc2ccc3ccccc3c2)CC1 (stereo not given) ? Thanks!
Response: 0.64

Request: Could you please provide reported inhibition for CC1(C)N=C(N)N=C(N)N1OCCCOc1cccc(C(=O)O)c1 ? Thanks!
Response: 3.22

Request: Could you please provide reported inhibition for CCCC(C)NC(=O)[C@H](CC1CCCCC1)NC(=O)c1ccc(O)c(-c2ccc(OC)cc2)c1 (stereo not given in full) ? Thanks!
Response: 2.85

Request: Could you please provide reported inhibition for Cn1c(N=C2NC3(c4ccccn4)NC(=Nc4nc5ccccc5n4C)NC3(c3ccccn3)N2)nc2ccccc21 (stereo not given) ? Thanks!
Response: 0.64

Request: Could you please provide reported inhibition for CCCn1cc2c(ccc3nc(N)nc(N)c32)n1 ? Thanks!
Response: 0.23

Request: Could you please provide reported inhibition for CC(C)OC(=O)c1ccc(NC(=O)N[C@@H](Cc2ccc(O)cc2)C(=O)NC2CC3CCC(C2)N3Cc2ccccc2)cc1 (stereo not given in full) ? Thanks!
Response: -0.07

----------
# Measurement Target: Solute carrier family 2, facilitated glucose transporter member 1 (Homo sapiens)
# Test Protocol: ST_JUDE_LEISH: Cytotoxicity at 2uM final concentration against transgenic Leishmania Mexicana promastigotes LmGLUT1 that are glucose transport deficient and complemented with the human glucose transporter GLUT1. Activity is measured by DNA content using SYBR green in vitro
# Assay type: functional
Provide the recorded inhibition for the entries that follow.
Answer format: numeric, % implied, no suffix.

Request: Tell me inhibition of Cc1cccc(C(=O)Nc2ccnc(N(C)CCCN(C)Cc3cccc(O)c3)c2)c1 when tested on Solute carrier family 2, facilitated glucose transporter member 1 (Homo sapiens).
Response: -1.6

Request: Tell me inhibition of N=c1n(CCN2CCCCC2)c2ccccc2n1CC(=O)c1cccc([N+](=O)[O-])c1 when tested on Solute carrier family 2, facilitated glucose transporter member 1 (Homo sapiens).
Response: 2.8

Request: Tell me inhibition of Cc1[nH]c(C)c(-c2ccc(-c3ccccc3)nc2)c(=O)c1Br when tested on Solute carrier family 2, facilitated glucose transporter member 1 (Homo sapiens).
Response: -0.2

Request: Tell me inhibition of CCOC(=O)c1cnc2c(OC)cc(OC)c(Cl)c2c1Nc1cccc(C)c1C when tested on Solute carrier family 2, facilitated glucose transporter member 1 (Homo sapiens).
Response: 0.67

Request: Tell me inhibition of O=S(=O)(c1cccc(F)c1)c1ccc(Nc2ncnc3cc(Br)sc23)cc1Cl when tested on Solute carrier family 2, facilitated glucose transporter member 1 (Homo sapiens).
Response: 3.23

Request: Tell me inhibition of COc1ccc(C2C(C(=O)Nc3ccc(C)c(F)c3)c3cc(OC)c(OC)cc3C(=O)N2C)cc1 (centres undefined) when tested on Solute carrier family 2, facilitated glucose transporter member 1 (Homo sapiens).
Response: 2.11

Request: Tell me inhibition of N#Cc1ccc2c(c1)CCN(CCC1CCC(NC(=O)/C=C/c3c[nH]c4c(Br)cccc34)CC1)CC2 (centres undefined) when tested on Solute carrier family 2, facilitated glucose transporter member 1 (Homo sapiens).
Response: 16.5

Request: Tell me inhibition of CN(CCN1CCC(c2c[nH]c3ccccc23)CC1)c1ccc(-c2nc3cc(Cl)c(Cl)cc3[nH]2)cc1 when tested on Solute carrier family 2, facilitated glucose transporter member 1 (Homo sapiens).
Response: 2.04

Request: Tell me inhibition of C=C(C)Cn1cc(C2CCN(CCN3CCC(CNC(=O)c4ccc(-c5ccc(C#N)cc5)cc4)CC3)CC2)c2ccccc21 when tested on Solute carrier family 2, facilitated glucose transporter member 1 (Homo sapiens).
Response: 7.94

All values here come from ChEMBL document CHEMBL3433997.
